stated_conditions: pH 4.0
parameter_measured: logD
Answers are plain numbers.

Below, each entry is followed by its recorded logD result.
record_smiles=O=[N+]([O-])c1cc(C(F)(F)F)cc([N+](=O)[O-])c1NN=CC(F)(F)F value_measured=2.8
record_smiles=O=[N+]([O-])c1ccc(NN=C(C(F)(F)F)C(F)(F)F)c([N+](=O)[O-])c1 value_measured=3.8
record_smiles=CC(=NNc1ccc([N+](=O)[O-])cc1[N+](=O)[O-])C(F)(F)F value_measured=3.3
record_smiles=N#Cc1ccc(NN=C(C(F)(F)F)C(F)(F)F)c([N+](=O)[O-])c1 value_measured=3.4

Parameters: items (list). Returns: logD for each item.
1. CC(=NNc1c([N+](=O)[O-])cc(C(F)(F)F)cc1[N+](=O)[O-])C(F)(F)F
2. CC(C)=NNc1c([N+](=O)[O-])cc(C(F)(F)F)cc1[N+](=O)[O-]
3. O=[N+]([O-])c1cc(C(F)(F)F)cc([N+](=O)[O-])c1NN=C(C(F)(F)F)C(F)(F)F
4. O=[N+]([O-])c1ccc(NN=C(C(F)(F)F)C(F)(F)F)c(C(F)(F)F)c1
5. FC(F)(F)C(=NNc1ccc(Cl)c(Cl)c1)C(F)(F)F

a:
[3, 3.2, 3.6, 4.6, 5.1]

Memo: `O=[N+]([O-])c1cc(C(F)(F)F)ccc1NN=C(C(F)(F)F)C(F)(F)F` , reported logD: 4.8

---

parameter_measured: logP
One number for each entry.

compound=OCCCO parameter_measured=logP value_measured=-1.04
compound=O=C(N/N=C/c1ccc[nH]1)Nc1ccccc1 parameter_measured=logP value_measured=2.96
compound="CCC1OC(=O)C(C)C(OC2CC(C)(OC)C(O)C(C)O2)C(C)C(OC2OCC(O)C(N=[N+]=[N-])C2O)C(C)(O)CC(C)C(=O)CC(O)C1(C)O (centres undefined)" parameter_measured=logP value_measured=1.76
compound=Cc1ccc(C(=O)COc2c(C(=O)c3ccc(Cl)c(C)c3Cl)c(C)nn2C)cc1 parameter_measured=logP value_measured=4.69
compound=CC1=C(/C=C/C(C)=C/C=C/C(C)=C/CO)C(C)(C)CCC1 parameter_measured=logP value_measured=5.68
compound=Cn1c(N)nc2cc(C#N)ccc21 parameter_measured=logP value_measured=1.11
compound=CCNC(=O)c1ccco1 parameter_measured=logP value_measured=0.61
compound=S=C(N/N=C/c1ccc[nH]1)Nc1ccccc1 parameter_measured=logP value_measured=3.73

// input: 6 compounds below; output: logP for each
1. COc1ccc(CC#N)cc1
2. N#Cc1ccccc1N
3. C=CCCC=C
4. Nc1ccc(Cl)c([N+](=O)[O-])c1
5. Cn1ccc(=O)n(C)c1=O
6. CNC1=CC(=O)c2ccccc2C1=O

a:
1. 1.7
2. 1.4
3. 2.87
4. 2.06
5. -0.54
6. 1.74

---

stated_conditions: pH 6.3
parameter_measured: logD

logD reported for this compound `CC(C)N(C)/N=N/c1ccc(C(N)=O)cc1` : 2.02

---

For each record, write down the corresponding logP.
One number for each entry.

molecule=C1=COCCC1 value_measured=0.69
molecule=CCn1cnc2c(NC(C)=O)ncnc21 value_measured=-0.41
molecule=C[C@H](C(=O)O)c1ccc(N2Cc3ccccc3C2=O)cc1 value_measured=2.89
molecule=ICCCI value_measured=3.02
molecule="C=CCOCC1CO1 (stereo not drawn)" value_measured=0.46

For the 3 molecules below, give their logP values.
1. CC(=O)OC(C)c1ccccc1 (stereo not drawn)
2. COc1ccc([N+](=O)[O-])cc1N
3. Cc1c(Cl)cc(-c2ccc(=O)[nH]n2)cc1Cl

a:
1: 2.3; 2: 1.47; 3: 3.2
